Examples of molecules with documented LD50 at 72 h follow.
assay_name: Acute toxicity test (LD50, Litchfield-Wilcoxon), mice
condition: mouse, in vivo, ip, male, intraperitoneal
endpoint: LD50 at 72 h (mg/kg)

| molecule | endpoint | relation_sign | val |
| --- | --- | --- | --- |
| COc1ccc(C2(c3ccc(OC)c(CO)c3)NC(=O)NC2=O)cc1CO | LD50 at 72 h | > | 5000 |
| O=C1NC(=O)C(c2ccccc2OCc2ccccc2)(c2ccccc2OCc2ccccc2)N1 | LD50 at 72 h | > | 5000 |
| CCCOc1ccccc1C1(c2ccccc2OCCC)NC(=O)NC1=O | LD50 at 72 h | > | 5000 |
| COc1cc(C2(c3ccc(OC)c(OC)c3OC)NC(=O)NC2=O)cc(OC)c1OC (stereo not shown) | LD50 at 72 h | > | 5000 |
| O=C1NC(=O)C(c2cc(O)c(O)c(O)c2)(c2cc(O)c(O)c(O)c2)N1 [Compound 36, 5,5-Bis(3,4,5-trihydroxyphenyl)hydantoin] | LD50 at 72 h | = | 820 |
| COc1ccc(C2(c3ccc(OC)c(Cl)c3)NC(=O)NC2=O)cc1 (stereo not shown) | LD50 at 72 h | = | 1000 |
| CCC1(c2ccccc2O)NC(=O)NC1=O (stereo not shown) [Compound 25, 5-Ethyl-5-(2-hydroxyphenyl)hydantoin] | LD50 at 72 h | = | 1230 |

meta.source: patent US4281009A
